# Tested Target: active mouse DPP1 enzyme (Mus musculus, UniProt P97821)
# Construct: Each subunit is composed of an N-terminal fragment, a heavy chain and a light chain; purchased R&D Systems
# Sequence (P97821 25-134 limits assumed): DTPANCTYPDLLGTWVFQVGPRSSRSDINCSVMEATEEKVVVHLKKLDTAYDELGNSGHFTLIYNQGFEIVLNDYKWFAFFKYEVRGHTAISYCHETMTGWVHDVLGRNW
# Sequence (P97821 231-393 limits assumed): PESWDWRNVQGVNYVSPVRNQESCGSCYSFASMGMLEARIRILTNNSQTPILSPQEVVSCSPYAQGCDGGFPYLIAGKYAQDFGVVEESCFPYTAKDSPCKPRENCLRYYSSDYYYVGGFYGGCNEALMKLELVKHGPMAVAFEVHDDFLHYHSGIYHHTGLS
# Sequence (P97821 394-462 limits assumed): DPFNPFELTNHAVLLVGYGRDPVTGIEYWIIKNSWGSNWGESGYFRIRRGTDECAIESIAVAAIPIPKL
# Measurement Protocol: Mouse DPP1 Enzyme IC50 Assay
# Assay type: biochemical
# Study Conditions: active mouse DPP1 enzyme, H-Gly-Arg-AMC substrate, 10 minutes pre-incubation at 37° C., pH 5.5; average of n runs; read-out: Avg. IC50 (Mouse DPP1 enzyme IC50 value ranges)
# Procedure: Example 96: Mouse DPP1 Enzyme IC50 Assay Test articles were applied to active mouse DPP1 enzyme (R&D Systems; Minneapolis, MN) in Assay Buffer (50 mM MES pH 5.5, 50 mM NaCl, 5 mM DTT) in a total reaction volume of 125 μL. […] Substrate cleavage was measured for 90 minutes at 37° C., with fluorescence at Excitation/Emission 350/450 nm measured every 5 minutes. […]
Please go through the items and note down their IC50.

Note down IC50 recorded for Cc1cn2cc(-c3ccc(C[C@@H](C#N)NC(=O)[C@@H]4CNCCCCO4)cc3)cc2c(C)n1 [Compound A27]
> 0.02 µM

Input N#C[C@H](Cc1ccc(-c2cnc3c(n2)CCCC3)cc1)NC(=O)[C@@H]1CNCCCO1 [Compound A11] , output reported IC50.
> 0.02 µM

# return recorded IC50 for entry CN1C(=O)C2(CCCN(C3COC3)C2)c2cc(-c3ccc(C[C@@H](C#N)NC(=O)[C@@H]4CNCCCO4)cc3)ccc21 (stereo partly drawn) [Compound 28]
> 0.02 µM

Quote IC50 reported for Cc1csc(-c2ccc(C[C@@H](C#N)NC(=O)[C@@H]3CNCCCO3)cc2)n1 [Compound 11] please.
> 0.02 µM

Fill in reported IC50 for this entry: N#CC(Cc1cc2c(cc1F)-c1ccc(F)cc1CO2)NC(=O)[C@@H]1CNCCCCO1 (mixture of isomers) [Compound B16]
> 0.02 µM

Please give measured IC50 of the following entry: N#C[C@H](Cc1ccc(-c2ccc(C(F)(F)F)cc2)cc1)NC(=O)[C@@H]1CNCCCO1 [Compound 12]
> 0.02 µM

Please indicate IC50 recorded for N#Cc1ccc2c(c1)COc1cc(CC(C#N)NC(=O)[C@@H]3CNCCCCO3)c(F)cc1-2 (stereo partly drawn) [Compound B7]
> 0.02 µM

// fetch IC50 given entry N#C[C@H](Cc1ccc(-c2ccc3c(c2)CCNC3=O)cc1)NC(=O)[C@@H]1CNCCCO1 [Compound A2]
> 0.02 µM

Tell me measured IC50 for CN1CCCC2(C1)C(=O)N(C)c1ccc(-c3ccc(C[C@@H](C#N)NC(=O)[C@@H]4CNCCCO4)cc3)cc12 (stereo partly drawn) [Compound 18] please.
> 0.02 µM

Tell me measured IC50 for CO[C@@H]1CCNC[C@@H](C(=O)N[C@H](C#N)Cc2ccc(-c3cc4c(C)nc(C)cn4c3)cc2F)OC1 [Compound A47] please.
< 0.005 µM

Return reported IC50. Input molecule: CO[C@@H]1CCNC[C@@H](C(=O)N[C@H](C#N)Cc2ccc(-c3ccc(C#N)cc3)cc2F)OC1 [Compound F4]
< 0.005 µM

Give me measured IC50, please, for this molecule: CN1CCC2(CCc3cc(-c4ccc(C[C@@H](C#N)NC(=O)[C@@H]5CNCCCO5)cc4)ccc32)CC1 [Compound 26]
> 0.02 µM

Give a short answer stating reported IC50 for N#C[C@H](Cc1ccc(-c2ccc(S(F)(F)(F)(F)F)cc2)cc1)NC(=O)[C@@H]1CNCCCO1 [Compound 6] .
> 0.02 µM

Dear colleague, please send me the reported IC50 for CN1CCN(S(=O)(=O)c2ccc(-c3ccc(C[C@@H](C#N)NC(=O)[C@@H]4CNCCCO4)c(F)c3)cc2)CC1 [Compound 21] when you can.
> 0.02 µM

Query IC50 for N#C[C@H](Cc1cc2c(cc1F)-c1cc(C3COC3)c(F)cc1CO2)NC(=O)[C@@H]1CNCCCCO1 [Compound B10-B]
< 0.005 µM

Return IC50 (reported value) for this molecule: CN1CCN(Cc2ccc(-c3ccc(C[C@@H](C#N)NC(=O)[C@@H]4CNCCCO4)cc3)cc2)CC1 [Compound 9]
> 0.02 µM

Fill in reported IC50 for this entry: N#C[C@H](Cc1ccc(-c2ccc3c(c2)CCCS3)cc1)NC(=O)[C@@H]1CNCCCO1 [Compound A5]
> 0.02 µM

Provide IC50 value for the following molecule: N#C[C@H](Cc1ccc(-c2ccc3c(n2)CCCN3)cc1)NC(=O)[C@@H]1CNCCCO1 [Compound A10]
> 0.02 µM

Could you please provide reported IC50 for CN1CCN(S(=O)(=O)c2ccc(-c3ccc(C[C@@H](C#N)NC(=O)[C@@H]4CNCCCO4)cc3)cc2)CC1 [Compound 20] ? Thanks!
> 0.02 µM

Give me measured IC50, please, for this molecule: Cc1nc(-c2ccc(C[C@@H](C#N)NC(=O)[C@@H]3CNCCCO3)cc2)sc1C#N [Compound 10]
> 0.02 µM

Identify measured IC50 associated with N#Cc1ccc(-c2ccc(C[C@@H](C#N)NC(=O)[C@@H]3CNCCCO3)cc2)cc1C1CC1 [Compound 8]
> 0.02 µM

Output measured IC50 for this item: N#Cc1ccc(-c2ccc(C[C@@H](C#N)NC(=O)[C@@H]3CNCCCO3)cc2)cc1C(F)(F)F [Compound 7]
> 0.02 µM

Let me know recorded IC50 for Cc1cn2cc(-c3ccc(C[C@@H](C#N)NC(=O)[C@@H]4CNCCCO4)cc3)cc2c(C)n1 [Compound A8] , thanks.
> 0.02 µM

Kindly indicate its recorded IC50. Item: N#Cc1ccc2c(c1)COc1cc(CC(C#N)NC(=O)[C@@H]3CNCCCCO3)c(F)cc1-2 (single isomer, unassigned) [Compound B9]
0.005 to 0.02 µM

Indicate the recorded IC50 value for this molecule: CCN1C(=O)Cc2ccc(-c3ccc(C[C@@H](C#N)NC(=O)[C@@H]4CNCCCO4)cc3)cc21 [Compound 32]
> 0.02 µM

Please report IC50 for the following molecule: Cc1cn2cc(-c3ccc(C[C@@H](C#N)NC(=O)[C@@H]4CNCCCCO4)c(F)c3)cc2c(C)n1 [Compound A28]
> 0.02 µM

Please give measured IC50 of the following entry: CN1C(=O)CCc2cc(-c3ccc(C[C@@H](C#N)NC(=O)[C@@H]4CNCCCO4)cc3)ccc21 [Compound A21]
> 0.02 µM

Hello, please tell me recorded IC50 for this one: Cn1nc(F)c2ccc(-c3ccc(C[C@@H](C#N)NC(=O)[C@@H]4CNCCCO4)cc3)cc21 [Compound A1]
> 0.02 µM

Consider the molecule CN1CCC(n2ncc3ccc(-c4ccc(C[C@@H](C#N)NC(=O)[C@@H]5CNCCCO5)c(F)c4)cc32)CC1 [Compound A3] and give its recorded IC50.
> 0.02 µM

Hello, please tell me recorded IC50 for this one: CN1CCC2(CC1)OC(=O)c1ccc(-c3ccc(C[C@@H](C#N)NC(=O)[C@@H]4CNCCCO4)cc3)cc12 [Compound 14]
0.005 to 0.02 µM
